Test Summary: gradient 5% acetonitrile 3 min, to 50% in 2 min, to 85% in 15 min, held 3 min, 100 µL/min
Test Context: column: Zorbax Extend-C18 2.1 x 50 mm; eluents: water / acetonitrile, 0.1% formic acid
Can you tell me RP-LC retention time for the items I'm about to list?

Below, each entry is followed by its recorded RP-LC retention time result.
CCN1CCN(C(=O)c2sc(-c3cn(C(C)C)c4ncccc34)nc2C)CC1	612 s
O=C(Cn1ccnc1-c1ccnc(N2CCCCC2)c1)NC1CCCCC1	624 s
COc1ccc(CNC(=O)C2CCN(S(=O)(=O)c3ccc4c(c3)sc(=O)n4C)CC2)cc1	795 s
COc1ccccc1NC(=O)Cn1c(-c2nc(C(C)C)no2)cccc1=O	927 s
CN1C(=O)c2cccnc2Sc2cc(NC(=O)Cc3ccc(F)cc3)ccc21	834 s
CCCCCC#CC[C@@H](O)/C=C/C=C/C=C\[C@@H](O)CCCC(=O)O	991 s
COc1cccc(-c2noc(CCn3nc(-c4ccc5c(c4)OCO5)ccc3=O)n2)c1OC	852 s
COc1ccc(NC(=O)Cn2c(C)cc(-c3nnc(-c4ccc(F)cc4)o3)c2C)cc1F	962 s
Cn1c([N+](=O)[O-])cnc1N1CCN(c2nncs2)C1=O	689 s
COc1ccccc1NC(=O)C1CC(=O)N(c2n[nH]c3cccc(F)c23)C1 (centres undefined)	728 s

For each of the molecules below, note its RP-LC retention time.
1. Cc1ccc(-c2cn3cccnc3n2)cc1NC(=O)c1ccc(C(C)(C)C)cc1
2. COc1cccc(S(=O)(=O)N2CCCC(Cn3c(C)nc4cccnc43)C2)c1 (centres undefined)
3. O=C(NCc1ccco1)c1c(O)c2sccc2[nH]c1=O

## Output
1: 816 s; 2: 693 s; 3: 787 s

Go through the list and state RP-LC retention time for each entry.
1. Cc1nn(C)c(C)c1C(C)NC(=O)CCC1CCCN(c2cc(NC3CC3)ncn2)C1 (centres undefined)
2. Cc1nc(-c2csc(S(=O)(=O)N3CCC(C(=O)N(C)Cc4ccccc4)CC3)c2)no1
3. O=C1c2ccccc2C(=O)c2c(O)c(NCCNCCO)cc(O)c21
4. O=C(NCC(c1ccco1)N1CCN(c2ccccc2)CC1)Oc1ccccc1 (centres undefined)
5. CCCCS(=O)(=O)c1cc2c(cc1NC(=O)c1ccccc1)n(C)c(=O)n2C
6. COc1ccc(NC(=O)CN2C(=O)C(C)(C)c3ccccc32)c(OC)c1

## Output
["594 s", "898 s", "653 s", "625 s", "887 s", "869 s"]

###

Consider the following molecules; for each one, report its RP-LC retention time.
Test Summary: gradient 5% acetonitrile 3 min, to 50% in 2 min, to 85% in 15 min, held 3 min, 100 µL/min
Test Context: column: Zorbax Extend-C18 2.1 x 50 mm; eluents: water / acetonitrile, 0.1% formic acid
Please make sure the unit comes right after the number.

Before answering, review these 8 worked examples.
COCc1cc(=O)n(CC(=O)Nc2ccc(C)cc2C)c(N2CCOCC2)n1	844 s
Cn1c(=O)n(C)c2cc(N3CCCCC3)c(NC(=O)NC3CCCC3)cc21	654 s
COc1cccc(NS(=O)(=O)c2cccc(-c3nc(-c4ccccc4)no3)c2)c1	1140 s
Cc1ccccc1Nc1c(-c2ccc(Cl)cc2)nc2cccc(C)n12	804 s
O=C(NCc1ccc(C(F)(F)F)cc1)C1CCCN(c2nccnc2Sc2ccccc2)C1 (centres undefined)	1140 s
O=C(NC1CCCCCCC1)C1CCN(C(=O)c2ncn3c2COC(c2ccc(Cl)cc2)C3)CC1 (centres undefined)	936 s
O=c1ccc(-c2ccc3c(c2)OCO3)nn1CCc1nc(-c2ccc(F)c(Br)c2)no1	1030 s
C=CCc1c(C)nc2c(-c3ccccc3)cnn2c1NCCN(C)C	660 s

## Input Form field: reported RP-LC retention time of `Nc1nnc(CS(=O)(=O)c2ccccc2)o1`
## Output 568 s
